- Study system: 5-hydroxytryptamine receptor 1D (Homo sapiens)
- Sequence (P28221 whole entry): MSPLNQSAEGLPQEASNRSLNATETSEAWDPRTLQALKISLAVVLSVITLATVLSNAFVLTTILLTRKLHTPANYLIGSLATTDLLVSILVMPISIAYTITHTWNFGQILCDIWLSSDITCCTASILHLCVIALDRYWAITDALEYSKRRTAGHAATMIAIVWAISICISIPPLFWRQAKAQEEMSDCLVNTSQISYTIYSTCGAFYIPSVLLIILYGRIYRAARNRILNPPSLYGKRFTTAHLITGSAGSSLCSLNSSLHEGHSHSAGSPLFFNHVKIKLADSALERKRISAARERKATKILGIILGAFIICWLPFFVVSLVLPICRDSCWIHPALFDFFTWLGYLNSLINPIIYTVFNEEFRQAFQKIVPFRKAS
- Method summary: Compound was evaluated for the affinity at 5-hydroxytryptamine 1D receptor
Readout kind: IC50

INSERT INTO results (chemical_string, readout_kind, meas_value) VALUES
  ('Fc1cccc(CCN2CCN(CCCc3c[nH]c4ccc(-n5cnnc5)cc34)CC2)c1', 'IC50', '0.6 nM');

---

Reported IC50 values are given for each entry in this list.
- Study system: 5-hydroxytryptamine receptor 1B (Homo sapiens)
- Sequence (P28222 whole entry): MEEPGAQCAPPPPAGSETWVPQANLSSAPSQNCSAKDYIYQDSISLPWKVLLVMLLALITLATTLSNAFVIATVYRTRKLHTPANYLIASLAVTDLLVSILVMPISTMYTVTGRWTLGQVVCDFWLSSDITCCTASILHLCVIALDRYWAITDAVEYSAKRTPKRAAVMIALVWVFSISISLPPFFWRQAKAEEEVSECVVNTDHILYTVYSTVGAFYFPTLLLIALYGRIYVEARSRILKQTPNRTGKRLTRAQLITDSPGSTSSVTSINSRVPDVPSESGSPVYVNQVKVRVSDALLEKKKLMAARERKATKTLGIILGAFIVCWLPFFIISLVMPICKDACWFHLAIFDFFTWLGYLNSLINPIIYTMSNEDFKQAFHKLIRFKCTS
- Method summary: Displacement of [3H]5-HT from human 5-hydroxytryptamine 1B receptor expressed in CHO cells
- Assay type: cell-based
Readout kind: IC50 (µM)

INSERT INTO measurements (chemical_string, readout_kind, meas_value) VALUES
  ('CN1CCN(CCCc2c[nH]c3ccc(-n4cnnc4)cc23)CC1', 'IC50', 0.43),
  ('CC(=O)Nc1ccc(CCN2CCN(CCCc3c[nH]c4ccc(-n5cnnc5)cc34)CC2)cc1', 'IC50', 0.251),
  ('CN1CCN(CCc2c[nH]c3ccc(-n4cnnc4)cc23)CC1', 'IC50', 0.31),
  ('Fc1ccc(CCN2CCN(CCCc3c[nH]c4ccc(-n5cnnc5)cc34)CC2)cc1F', 'IC50', 0.098),
  ('c1ccc(CN2CCN(CCCc3c[nH]c4ccc(-n5cnnc5)cc34)CC2)cc1', 'IC50', 0.0081);

---

- Study system: UniProtKB P28221
- Method summary: Stimulation of [35S]GTP-gamma-S, binding in CHO cells expressing 5-hydroxytryptamine 1D receptor
- Format: functional, cell-based
pEC50: −log10 of the molar value.
Respond with Fulfilled for pEC50 values of 9 and above, Not fulfilled for values below.

INSERT INTO results (chemical_string, class_assignment) VALUES
  ('CC(=O)Nc1ccc(CCN2CCN(CCCc3c[nH]c4ccc(-n5cnnc5)cc34)CC2)cc1', 'Not fulfilled'),
  ('CN1CCN(CCCc2c[nH]c3ccc(-n4cnnc4)cc23)CC1', 'Not fulfilled'),
  ('CN1CCN(CCc2c[nH]c3ccc(-n4cnnc4)cc23)CC1', 'Not fulfilled'),
  ('c1ccc(CN2CCN(CCCc3c[nH]c4ccc(-n5cnnc5)cc34)CC2)cc1', 'Fulfilled'),
  ('Fc1ccc(CCN2CCN(CCCc3c[nH]c4ccc(-n5cnnc5)cc34)CC2)cc1F', 'Not fulfilled');

---

- Study system: 5-hydroxytryptamine receptor 1E (Homo sapiens, UniProt P28566)
- Sequence (P28566 whole entry): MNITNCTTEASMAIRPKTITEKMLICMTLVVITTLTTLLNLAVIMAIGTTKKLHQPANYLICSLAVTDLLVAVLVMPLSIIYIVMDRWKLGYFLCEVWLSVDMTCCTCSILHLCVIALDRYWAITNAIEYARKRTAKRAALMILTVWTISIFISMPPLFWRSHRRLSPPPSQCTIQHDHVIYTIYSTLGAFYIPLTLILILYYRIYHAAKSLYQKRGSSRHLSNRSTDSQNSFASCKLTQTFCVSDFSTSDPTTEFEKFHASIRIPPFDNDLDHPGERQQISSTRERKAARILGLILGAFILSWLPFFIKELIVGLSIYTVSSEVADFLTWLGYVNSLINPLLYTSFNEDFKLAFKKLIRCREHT
Readout kind: IC50 (µM)

INSERT INTO assay_data (chemical_string, meas_value) VALUES
  ('CNS(=O)(=O)Cc1ccc2[nH]cc(CCN(C)C)c2c1', 2.4);

---

- Study system: 5-hydroxytryptamine receptor 1D (Homo sapiens)
- Method summary: Displacement of [3H]5-HT from human 5-hydroxytryptamine 1D receptor expressed in CHO cells
- Format: cell-based
Listed here: items and their measured IC50.
Readout kind: IC50 (nM)

INSERT INTO assay_data (chemical_string, readout_kind, measurement_units, meas_value) VALUES
  ('CC(=O)Nc1ccc(CCN2CCN(CCCc3c[nH]c4ccc(-n5cnnc5)cc34)CC2)cc1', 'IC50', 'nM', 1.3),
  ('CN1CCN(CCCc2c[nH]c3ccc(-n4cnnc4)cc23)CC1', 'IC50', 'nM', 35),
  ('Fc1cccc(CCN2CCN(CCCc3c[nH]c4ccc(-n5cnnc5)cc34)CC2)c1', 'IC50', 'nM', 0.6),
  ('Fc1cc(F)cc(CCN2CCN(CCCc3c[nH]c4ccc(-n5cnnc5)cc34)CC2)c1', 'IC50', 'nM', 0.7),
  ('c1ccc(CN2CCN(CCCc3c[nH]c4ccc(-n5cnnc5)cc34)CC2)cc1', 'IC50', 'nM', 0.2),
  ('CN1CCN(CCc2c[nH]c3ccc(-n4cnnc4)cc23)CC1', 'IC50', 'nM', 140);
